Hi there, I'd appreciate the recorded IC50 for every entry that follows.
target: CYP2D6 (Homo sapiens, UniProt P10635); experiment: CYP2D6 inhibition assay (bufuralol, pooled human liver microsomes); settings: 2D6 IC50, CYP2D6 inhibition
Sequence (P10635 whole entry): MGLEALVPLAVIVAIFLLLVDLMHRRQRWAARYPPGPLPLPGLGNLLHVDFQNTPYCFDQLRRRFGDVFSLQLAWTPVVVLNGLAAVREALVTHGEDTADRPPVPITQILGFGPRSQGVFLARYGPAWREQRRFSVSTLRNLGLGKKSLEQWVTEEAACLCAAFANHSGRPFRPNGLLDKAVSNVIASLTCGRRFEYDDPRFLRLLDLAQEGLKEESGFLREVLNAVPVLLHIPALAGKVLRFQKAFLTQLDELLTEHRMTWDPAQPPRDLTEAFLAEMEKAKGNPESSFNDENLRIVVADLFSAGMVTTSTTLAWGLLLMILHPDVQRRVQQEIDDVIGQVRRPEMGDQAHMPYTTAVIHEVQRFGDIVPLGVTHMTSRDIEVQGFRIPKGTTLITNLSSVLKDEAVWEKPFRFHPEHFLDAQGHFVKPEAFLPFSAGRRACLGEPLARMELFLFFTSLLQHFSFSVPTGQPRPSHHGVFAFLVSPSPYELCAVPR
Quick reminder: number only, in µM, skip the unit.

Please look up its IC50: CO[C@H](C)C(=O)N[C@@H](Cc1ccncc1)[C@H](O)CN[C@H]1CC2(CCC2)Oc2ncc(C(F)(F)F)cc21
5.8

Name the recorded IC50 for CC(=O)N[C@@H](Cc1cccc(-c2cccnc2)c1)[C@H](O)CN[C@H]1CC2(CCC2)Oc2ncc(CC(C)(C)C)cc21 .
1.3

Give its IC50 value. Item: COCC(=O)N[C@@H](Cc1ccc(F)cc1)[C@H](O)CN[C@H]1CC2(CCC2)Oc2c(-c3ccncc3)cc(CC(C)C)cc21
2.3

Entry CC(=O)N[C@@H](Cc1cccc(-n2ccnc2)c1)[C@H](O)CN[C@H]1CC2(CCC2)Oc2ncc(CC(C)(C)C)cc21 has what IC50?
0.16

So what does the record say about IC50 for COCC(=O)N[C@@H](Cc1ccc2c(c1)OCO2)[C@H](O)CN[C@H]1CC2(CCC2)Oc2ncc([C@@H]3CC3(C)C)cc21 ?
1.5

Please look up its IC50: COCC(=O)N[C@@H](Cc1cccc(F)c1)[C@H](O)CN[C@H]1CC2(CCC2)Oc2c(-c3ccncc3F)cc(CC(C)(C)C)cc21
2.9

Any idea what IC50 was measured for COC(OC)C(=O)N[C@@H](Cc1ccc(F)cc1)[C@H](O)CN[C@H]1CC2(CCC2)Oc2ncc(CC(C)(C)C)cc21 ?
10.3

# query: IC50 of entry CC(=O)N[C@@H](Cc1cc(F)cc(F)c1)[C@H](O)CN[C@H]1CC2(CCC2)Oc2c(-c3ccncc3)cc(Cl)cc21
0.4

IC50 lookup needed for CO[C@H](C)C(=O)N[C@@H](Cc1ccc(F)cc1)[C@H](O)CN[C@H]1CC2(CCC2)Oc2c(-c3ccncc3)cc(CC(C)C)cc21 , thanks.
2

Requested read-out: IC50. Entry: COCC(=O)N[C@@H](Cc1cc(F)cc(-c2ccncc2)c1)[C@H](O)CN[C@H]1CC2(CCC2)Oc2ncc(CC(C)(C)C)cc21
0.3

If you can, please state the reported IC50 value of CC(=O)N[C@@H](Cc1cc(F)cc(-c2cccnc2)c1)[C@H](O)CN[C@H]1CC2(CCC2)Oc2ccc(CC(C)(C)C)cc21 .
0.5

Recorded IC50 for COCC(=O)N[C@@H](Cc1cccc(F)c1)[C@H](O)CN[C@H]1CC2(CCC2)Oc2c1cc([C@@H](O)C(C)(C)C)cc2-n1ccnc1 , please?
1

GET /values?readout=IC50&item= CO[C@H](C)C(=O)N[C@@H](Cc1ccc2c(c1)OCO2)[C@H](O)CN[C@H]1CC2(CCC2)Oc2cnc(CC(C)C)cc21
2.4

Please give the measured IC50 for this compound: CO[C@H](C)C(=O)N[C@@H](Cc1ccccc1)[C@H](O)CN[C@H]1CC2(CCC2)Oc2c(-c3cncn3C)cc(CC(C)C)cc21
4.5

State the recorded IC50 for this entry: CC(=O)N[C@@H](Cc1cc(F)cc(-c2nccs2)c1)[C@H](O)CN[C@H]1CC2(CCC2)Oc2ncc(CC(C)(C)C)cc21
0.7

Name the recorded IC50 for CCOCC(=O)N[C@@H](Cc1cccc(F)c1)[C@H](O)CN[C@H]1CC2(CCC2)Oc2ncc(CC(C)(C)C)cc21 .
1.9

Please report the recorded IC50 for COCC(=O)N[C@@H](Cc1cncs1)[C@H](O)CN[C@H]1CC2(CCC2)Oc2c(-c3ccncc3)cc(CC(C)(C)C)cc21 .
3

// lookup IC50 for COCC(=O)N[C@@H](Cc1cccc(F)c1)[C@H](O)CN[C@H]1CC2(CCC2)Oc2c1cc(C=C(C)C)cc2-n1ccnc1
0.2

Look up IC50: CO[C@H](C)C(=O)N[C@@H](Cc1cc(F)cc(F)c1)[C@H](O)CN[C@H]1CC2(CCC2)Oc2c(-c3ccncc3)cc(CC(C)C)cc21
2.1

What IC50 value was documented for this compound, CC(=O)N[C@@H](Cc1cccc(-c2ccncc2)c1)[C@H](O)CN[C@H]1CC2(CCC2)Oc2ccc(CC(C)(C)C)cc21 ?
0.3

IC50 for COCC(=O)N[C@@H](Cc1cc(F)cc(F)c1)[C@H](O)CN[C@H]1CC2(CCC2)Oc2c(-c3ccncc3)cc(CC(C)C)cc21 ?
1.3

Suppose we examine the compound CC(=O)N[C@@H](Cc1cccc(-c2nccs2)c1)[C@H](O)CN[C@H]1CC2(CCC2)Oc2ccc(CC(C)(C)C)cc21 ; what IC50 value has been reported?
0.3

Using the record for CO[C@H](C)C(=O)N[C@@H](Cc1ccc2c(c1)OCO2)[C@H](O)CN[C@H]1CC2(CCC2)Oc2c1cc(CC(C)C)nc2Cl , report its IC50.
5.3
